Where do these numbers come from? They come from patent US20260167638A1.

- test method notes: Example 21 crossover pharmacokinetics of mono-tosylate and di-tosylate tablets in fasted dogs
- Assay type: in vivo, beagle dogs
- assay conditions: male, beagle, dog, plasma, po, 200 mg/tablet per dog, Example 21, fasted dogs, 200 mg tablet PO, mean; LLOQ 20 ng/mL; read-out: Plasma concentration of Compound I at 1 hour
measurement kind: concentration at 1 h (ng/mL)
Answers are plain numbers, in ng/mL.

Answer with reported concentration at 1 h of Cc1ccc(S(=O)(=O)O)cc1.Cn1cc(-c2cn(-c3ccc(OC(F)(F)F)cc3)c(=O)c3ncn(C)c23)cn1 [mono-tosylate]
4690
